These data points were gathered from ChEMBL document CHEMBL5532662.

target: Metallo-beta-lactamase type 2 (Bacteria, UniProt C7C422); test: biochemical
Sequence (C7C422 whole entry): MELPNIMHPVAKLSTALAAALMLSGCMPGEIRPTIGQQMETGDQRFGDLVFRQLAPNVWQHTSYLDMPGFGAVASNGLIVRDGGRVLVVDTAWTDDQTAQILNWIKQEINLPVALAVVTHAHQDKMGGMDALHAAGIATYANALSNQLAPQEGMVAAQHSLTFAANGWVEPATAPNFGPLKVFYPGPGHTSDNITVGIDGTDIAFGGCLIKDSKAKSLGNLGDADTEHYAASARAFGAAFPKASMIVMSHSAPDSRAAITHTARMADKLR
MEASURED ENDPOINT: pKi
Interpret pKi as the negative base-10 log of the concentration measured in mol/L.

Recorded pKi of `NCc1cccc(NCc2cc(C(=O)O)cc(-c3ccc(C(=O)O)c(O)c3)c2)c1` , please.
3.85

Recorded pKi of `NCc1cccc(NCc2cccc(-c3ccc(C(=O)O)c(O)c3)c2)c1` , please.
6.22

Recorded pKi of `NCc1cccc(NCc2ccc(-c3ccc(C(=O)O)c(O)c3)s2)c1` , please.
5.82

Recorded pKi of `NCc1cccc(N2Cc3ccc(-c4ccc(C(=O)O)c(O)c4)cc3C2)c1` , please.
4.30

Recorded pKi of `Cc1cc(CNc2cccc(CN)c2)cc(-c2ccc(C(=O)O)c(O)c2)c1` , please.
6.30

Recorded pKi of `NCc1cccc(NC(=O)c2cccc(-c3ccc(C(=O)O)c(O)c3)c2)c1` , please.
4.52

Recorded pKi of `CNCc1cccc(NCc2ccc(-c3ccc(C(=O)O)cc3)o2)c1` , please.
5.05
